Values from patent US20250195521A1

Collected IC50 values appear next to each entry.
# study target: KRAS G12C (Homo sapiens (Human), UniProt P01116+P62937, G12C)
# Sequence (P01116-2 other isoform, or with tags, fused parts or gaps G12C): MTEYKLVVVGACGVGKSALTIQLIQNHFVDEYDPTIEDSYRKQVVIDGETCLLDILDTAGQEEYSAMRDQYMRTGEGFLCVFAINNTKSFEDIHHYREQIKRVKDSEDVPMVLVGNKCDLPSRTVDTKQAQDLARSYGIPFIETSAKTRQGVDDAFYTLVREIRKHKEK
# Sequence (P62937 whole entry): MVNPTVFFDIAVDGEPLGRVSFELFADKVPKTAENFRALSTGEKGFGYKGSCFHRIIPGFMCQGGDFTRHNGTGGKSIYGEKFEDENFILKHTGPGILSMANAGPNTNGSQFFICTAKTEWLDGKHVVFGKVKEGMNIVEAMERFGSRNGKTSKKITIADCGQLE
# run description: Ras-Raf disruption/FRET/MOA assay, KRAS G12C
# Assay type: biochemical
measured endpoint: IC50

compound="CCn1c(-c2cnccc2COC)c2c3cc(ccc31)-c1cc(O)cc(c1)C[C@H](NC(=O)[C@H](C(C)C)N(C)C(=O)CN(C)C(=O)[C@H]1N[C@H]1C(=O)OC)C(=O)N1CCC[C@H](N1)C(=O)OCC(C)(C)C2 [Example 51]" study_target="KRAS G12C (Homo sapiens (Human), UniProt P01116+P62937, G12C)" result="10 to 100 nM"
compound="CCn1c(-c2cccnc2[C@H](C)OC)c2c3cc(ccc31)-c1cc(O)cc(c1)C[C@H](NC(=O)[C@H](C(C)C)N(C)C(=O)[C@@]1(C)CCCN1C(=O)[C@@H]1CN1)C(=O)N1CCC[C@H](N1)C(=O)OCC(C)(C)C2 [Example 241]" study_target="KRAS G12C (Homo sapiens (Human), UniProt P01116+P62937, G12C)" result="< 10 nM"
